- Test system: transactivating tegument protein VP16 (Human herpesvirus 1)
- assayOverview: VP16 transactivation reporter inhibitors, counter-screen for SRC2 inhibitor project, cell-based, luminescence, single concentration (AID 652007)
- testContext: cell-based VP16 transactivation luciferase reporter, at 8.9 µM, hits give high values
Where inhibition equals or exceeds 20%, the correct label is T; where it does not, the label is F.

{"molecule": "CCc1ccc(/C=C2\\SC(=S)N(CCCC(=O)N3CCN(C)CC3)C2=O)cc1", "cat": "F"}
{"molecule": "O=S(=O)(c1cc(C(F)(F)F)ccc1Cl)N1CCN(c2ncnc3ccccc23)CC1", "cat": "F"}
{"molecule": "CCCCCC(=O)N1CC2(CC(c3cccc(NC(=O)COc4ccc(Cl)cc4)c3)=NO2)C[C@@H]1C(N)=O (stereo partly specified)", "cat": "F"}
{"molecule": "CN=C1CC(SC)=C1c1ccc(C)cc1", "cat": "F"}
{"molecule": "Cc1ccc(C(=O)N/N=C/c2ccc([N+](=O)[O-])s2)cc1", "cat": "T"}
{"molecule": "Cc1cc(OCC(=O)Nc2ccncc2)cc(C)c1Cl", "cat": "F"}
{"molecule": "CCc1ccc(CNC(=O)c2cc3c(C)nc4ccccc4c3o2)cc1", "cat": "T"}
{"molecule": "CC(C)(C)NS(=O)(=O)c1ccc(Oc2ncc(C(F)(F)F)cc2Cl)cc1", "cat": "F"}
{"molecule": "O=C(CCCN1C(=O)S/C(=C\\c2ccccc2)C1=O)NNC(=O)c1ccccc1O", "cat": "T"}
{"molecule": "Cc1nc(NCc2ccco2)c2c(C)c(C)sc2n1", "cat": "F"}
